Reported viability at 5 µM values are given for each entry in this list.
System: A-375
assayName: Induction of apoptosis in human A-375 cells assessed assessed as viable cells at 5 uM incubated for 24 hrs by Annexin V-Elab Fluor 647/propidium iodide staining based flow cytometry (reference value: 91.1 %)
Format: functional
experimentalConditions: read-out: Activity

# molecule, viability at 5 µM
measured = [
    ("C[n+]1cc2c3c(ccc2c2ccc4cc5c(cc4c21)OCO5)OCO3 [SANGUINARIUM]", "20.4%"),
    ("COc1ccc2cc3[n+](cc2c1OC)CCc1cc2c(cc1-3)OCO2 [BERBERINE]", "35.4%"),
    ("COc1cc2c[n+](C)c3c4cc5c(cc4ccc3c2cc1OC)OCO5 [NITIDINE]", "30.8%"),
    ("c1c2c(cc3c1OCO3)-c1cc3ccc4c(c3c[n+]1CC2)OCO4 [COPTISINE]", "0.022%"),
    ("COc1ccc2c(c[n+](C)c3c4cc5c(cc4ccc23)OCO5)c1OC [CHELERYTHRINE]", "56%"),
]

====

targetEntity: Quadruplex DNA
assayName: Displacement of ThT from human G4-quadruplex VEGF DNA 5'- GGGCGGGCCGGGGGCGGG-3' incubated for 0.5 hrs by SpectraMax M2 microplate reader analysis
Type: nucleic-acid assay
Reported DC50 values are given for each entry in this list.
readoutLabel: DC50 (nM)

# compound, targetEntity, endpointResult
rows = [
    ("c1c2c(cc3c1OCO3)-c1cc3ccc4c(c3c[n+]1CC2)OCO4 [COPTISINE]", "Quadruplex DNA", 120),
    ("COc1ccc2cc3[n+](cc2c1OC)CCc1cc2c(cc1-3)OCO2 [BERBERINE]", "Quadruplex DNA", 580),
    ("COc1cc2c[n+](C)c3c4cc5c(cc4ccc3c2cc1OC)OCO5 [NITIDINE]", "Quadruplex DNA", 590),
    ("COc1ccc2c(c[n+](C)c3c4cc5c(cc4ccc23)OCO5)c1OC [CHELERYTHRINE]", "Quadruplex DNA", 410),
    ("C[n+]1cc2c3c(ccc2c2ccc4cc5c(cc4c21)OCO5)OCO3 [SANGUINARIUM]", "Quadruplex DNA", 140),
]

====

targetEntity: Quadruplex DNA
assayName: Binding affinity to human G4-quadruplex Pu27 DNA 5'- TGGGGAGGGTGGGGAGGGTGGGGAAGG-3' assessed as change in fluorescence intensity at 1 uM incubated for 0.5 hrs in presence of different concentrations of DNA by fluorescence spectra analysis
Format: nucleic-acid assay
pKd: −log10 of the molar value.

# compound, pKd
records = [
    ("c1c2c(cc3c1OCO3)-c1cc3ccc4c(c3c[n+]1CC2)OCO4 [COPTISINE]", 5.66),
    ("C[n+]1cc2c3c(ccc2c2ccc4cc5c(cc4c21)OCO5)OCO3 [SANGUINARIUM]", 5.14),
    ("COc1ccc2c(c[n+](C)c3c4cc5c(cc4ccc23)OCO5)c1OC [CHELERYTHRINE]", 5.28),
    ("COc1ccc2cc3[n+](cc2c1OC)CCc1cc2c(cc1-3)OCO2 [BERBERINE]", 5.27),
]

====

Reported pEC50 values are given for each entry in this list.
targetEntity: dsDNA
assayName: Binding affinity to double stranded DNA ssab2 (unknown origin) incubated for 0.5 hrs in presence of different concentration DNA by fluorescence spectra analysis
Format: nucleic-acid assay
pEC50: −log10 of the molar value.
readoutLabel: pEC50

# structureString, endpointResult
data = [
    ("C[n+]1cc2c3c(ccc2c2ccc4cc5c(cc4c21)OCO5)OCO3", 5.79),
    ("COc1ccc2c(c[n+](C)c3c4cc5c(cc4ccc23)OCO5)c1OC", 5.97),
    ("COc1ccc2cc3[n+](cc2c1OC)CCc1cc2c(cc1-3)OCO2", 7.00),
    ("c1c2c(cc3c1OCO3)-c1cc3ccc4c(c3c[n+]1CC2)OCO4", 5.14),
]

Reference for the values: ChEMBL document CHEMBL5579888
